Cited source for all entries: paper PMC4856416

Kd values by entry
target: HumRadA2 (Pyrococcus furiosus, UniProt O74036, I169M/Y201A/V202Y/E219S/D220A/K221M/DEL288-301); construct: gene radA; humanised monomeric C-terminal ATPase domain of RadA; six FxxA-site mutations; E. coli BL21(DE3); assay: ITC; assay type: binding; conditions: 25 °C, 50 mM Tris pH 7.5, 100 mM NaCl, 5 mM MgCl2; read-out: HumRadA2 / K D/μM
API: value field is a number in µM; no unit string.

The compound identified as Nc1nc2c(ncn2[C@@H]2O[C@H](COP(=O)(O)OP(=O)(O)O)[C@@H](O)[C@H]2O)c(=O)[nH]1 [GDP] registered its Kd at 0.21

The compound identified as Nc1ncnc2c1ncn2[C@@H]1O[C@H](COP(=O)(O)OP(=O)(O)NP(=O)(O)O)[C@@H](O)[C@H]1O [AMPPNP] registered its Kd at 20

The compound identified as Nc1nc2c(ncn2[C@@H]2O[C@H](COP(=O)(O)OP(=O)(O)OP(=O)(O)O)[C@@H](O)[C@H]2O)c(=O)[nH]1 [GTP] registered its Kd at 0.64

Let us move to another entry and its Kd.
The compound identified as Nc1ncnc2c1ncn2[C@@H]1O[C@H](COP(=O)(O)OP(=O)(O)O)[C@@H](O)[C@H]1O [ADP] registered its Kd at 0.54
